The origin of these recorded values is patent US20260069726A1.

# Assay type: in vitro ADME, mouse
Entries annotated with measured MSS % (2 hrs.) = Mouse Serum Stability
Numbers only; they are read as %.

Examples with answers:
C[C@@H](O)[C@H](NC(=O)[C@@H]1CSSC[C@H](NC(=O)[C@@H](Cc2ccccc2)NC(=O)CCOCCOCCOCCOCCNC(=O)[C@@H](Cc2ccc[n+](CCCS(=O)(=O)[O-])c2)NC(=O)CN2CCN(CC(=O)O)CCN(CC(=O)O)CCN(CC(=O)O)CC2)C(=O)N[C@@H](Cc2ccc(O)cc2)C(=O)N[C@H](Cc2c[nH]c3ccccc23)C(=O)N[C@@H](CCCCN)C(=O)N[C@@H]([C@@H](C)O)C(=O)N1)C(=O)O [DOTA-Pyr(ZW)-PEG4-TATE]	99.6
C[C@@H](O)[C@H](NC(=O)[C@@H]1CSSC[C@H](NC(=O)[C@@H](Cc2ccccc2)NC(=O)CCOCCOCCOCCOCCNC(=O)[C@H](CCCC[N+](C)(C)CCCS(=O)(=O)[O-])NC(=O)CN2CCN(CC(=O)O)CCN(CC(=O)O)CCN(CC(=O)O)CC2)C(=O)N[C@@H](Cc2ccc(O)cc2)C(=O)N[C@H](Cc2c[nH]c3ccccc23)C(=O)N[C@@H](CCCCN)C(=O)N[C@@H]([C@@H](C)O)C(=O)N1)C(=O)O [DOTA-(ZW1)-PEG4-TATE]	100
C[C@@H](O)[C@H](NC(=O)[C@@H]1CSSC[C@H](NC(=O)[C@@H](Cc2ccccc2)NC(=O)CN2CCN(CC(=O)O)CCN(CC(=O)O)CCN(CC(=O)O)CC2)C(=O)N[C@@H](Cc2ccc(O)cc2)C(=O)N[C@H](Cc2c[nH]c3ccccc23)C(=O)N[C@@H](CCCCN)C(=O)N[C@@H]([C@@H](C)O)C(=O)N1)C(=O)O [DOTA-TATE, DOTA-Tyr^3-octreotate, reference compound]	100

Please find the next molecule below.
MSS % (2 hrs.) = Mouse Serum Stability lookup needed for C[C@@H](O)[C@H](NC(=O)[C@@H]1CSSC[C@H](NC(=O)[C@@H](Cc2ccccc2)NC(=O)CCOCCOCCOCCOCCNC(=O)[C@H](CCCC[N+](C)(C)CCCS(=O)(=O)[O-])NC(=O)[C@H](CCCC[N+](C)(C)CCCS(=O)(=O)[O-])NC(=O)CN2CCN(CC(=O)O)CCN(CC(=O)O)CCN(CC(=O)O)CC2)C(=O)N[C@@H](Cc2ccc(O)cc2)C(=O)N[C@H](Cc2c[nH]c3ccccc23)C(=O)N[C@@H](CCCCN)C(=O)N[C@@H]([C@@H](C)O)C(=O)N1)C(=O)O [DOTA-(ZW2)-PEG4-TATE] , thanks.
100

----------
# Format: physicochemical
# Reported Conditions: pH 7.4
Observable: logD
Answer using only a numeral; do not append any unit.

See these solved cases before continuing.
C[C@@H](O)[C@H](NC(=O)[C@@H]1CSSC[C@H](NC(=O)[C@@H](Cc2ccccc2)NC(=O)CCOCCOCCOCCOCCNC(=O)[C@H](CCCC[N+](C)(C)CCCS(=O)(=O)[O-])NC(=O)[C@H](CCCC[N+](C)(C)CCCS(=O)(=O)[O-])NC(=O)CN2CCN(CC(=O)O)CCN(CC(=O)O)CCN(CC(=O)O)CC2)C(=O)N[C@@H](Cc2ccc(O)cc2)C(=O)N[C@H](Cc2c[nH]c3ccccc23)C(=O)N[C@@H](CCCCN)C(=O)N[C@@H]([C@@H](C)O)C(=O)N1)C(=O)O [DOTA-(ZW2)-PEG4-TATE]	-3.36
C[C@@H](O)[C@H](NC(=O)[C@@H]1CSSC[C@H](NC(=O)[C@@H](Cc2ccccc2)NC(=O)CCOCCOCCOCCOCCNC(=O)[C@H](CCCC[N+](C)(C)CCCS(=O)(=O)[O-])NC(=O)CN2CCN(CC(=O)O)CCN(CC(=O)O)CCN(CC(=O)O)CC2)C(=O)N[C@@H](Cc2ccc(O)cc2)C(=O)N[C@H](Cc2c[nH]c3ccccc23)C(=O)N[C@@H](CCCCN)C(=O)N[C@@H]([C@@H](C)O)C(=O)N1)C(=O)O [DOTA-(ZW1)-PEG4-TATE]	-3.39

# input for lookup
Name the recorded logD for C[C@@H](O)[C@H](NC(=O)[C@@H]1CSSC[C@H](NC(=O)[C@@H](Cc2ccccc2)NC(=O)CN2CCN(CC(=O)O)CCN(CC(=O)O)CCN(CC(=O)O)CC2)C(=O)N[C@@H](Cc2ccc(O)cc2)C(=O)N[C@H](Cc2c[nH]c3ccccc23)C(=O)N[C@@H](CCCCN)C(=O)N[C@@H]([C@@H](C)O)C(=O)N1)C(=O)O [DOTA-TATE, DOTA-Tyr^3-octreotate, reference compound] .
-2.81

----------
# Assay type: physicochemical
# Reported Conditions: pH 7.4
Observable: logD
Lab note: record just the number, no unit beside it.

Would you mind telling me what logD value was observed for C[C@@H](O)[C@H](NC(=O)[C@@H]1CSSC[C@H](NC(=O)[C@@H](Cc2ccccc2)NC(=O)CCOCCOCCOCCOCCNC(=O)[C@@H](Cc2ccc[n+](CCCS(=O)(=O)[O-])c2)NC(=O)CN2CCN(CC(=O)O)CCN(CC(=O)O)CCN(CC(=O)O)CC2)C(=O)N[C@@H](Cc2ccc(O)cc2)C(=O)N[C@H](Cc2c[nH]c3ccccc23)C(=O)N[C@@H](CCCCN)C(=O)N[C@@H]([C@@H](C)O)C(=O)N1)C(=O)O [DOTA-Pyr(ZW)-PEG4-TATE] ?
-3.57
